meta.source: patent US20080293771A1

Counter-ions that a name gives are not always drawn.
experimentalReadout: melting point

compound | melting point
Cc1nc2ccccc2n1-c1ccc(C(=O)N(C)C2CCN(C3CCCC3)CC2)c(Cl)c1 (as salt: hydrochloride) | 240 °C (dec.)
Cc1nc2ccccc2n1-c1ccc(C(=O)N(C)[C@@H]2CCN(CC(C)C)C2)cc1 (as salt: hydrochloride) | 189 to 190 °C
CN(C(=O)c1ccc(-n2cc3ccccc3n2)cc1)[C@@H]1CCN(C2CCC2)C1 (as salt: hydrochloride) | 163 to 165 °C
CC(C)N1CC[C@@H](N(C)C(=O)c2ccc(-n3cc4ccccc4n3)cc2)C1 (as salt: hydrochloride) | 227 to 228 °C
Cc1nc2ccccc2n1-c1ccc(C(=O)N(C)C2CCN(C3CCCC3)CC2)cc1 (as salt: hydrochloride) | 270 °C (dec.)
Cc1nc2ccccc2n1-c1ccc(C(=O)N(C)[C@H]2CCN(C3CCC(C)C3)C2)cc1 (some centres unmarked) (as salt: hydrochloride) | 173 to 175 °C
CCN(C(=O)c1ccc(-n2c(C)nc3ccccc32)cc1)[C@@H]1CCNC1 (as salt: hydrochloride) | 174 to 176 °C
Cc1nc2ccccc2n1-c1ccc(C(=O)N(C)[C@@H]2CCN(C3CCOCC3)C2)cc1 (as salt: hydrochloride) | 200 to 202 °C
Cc1nc2ccccc2n1-c1ccc(C(=O)N(C)C2CCN(C(C)C)CC2)c(Cl)c1 (as salt: hydrochloride) | 250 °C (dec.)
Cc1nc2ccccc2n1Cc1ccc(C(=O)N(C)[C@@H]2CCNC2)cc1 (as salt: hydrochloride) | 126 to 128 °C

// for each compound below, give its melting point
1. CN(C(=O)c1ccc(-n2ncc3ccccc32)cc1)C1CCN(C2CCC2)CC1 (as salt: hydrochloride)
2. CN(C(=O)c1ccc(Cn2ncc3ccccc32)cc1)[C@@H]1CCNC1 (as salt: hydrochloride)
3. COc1cc(C(=O)N(C)C2CCN(C(C)C)CC2)ccc1-n1c(C)nc2ccccc21 (as salt: hydrochloride)
4. CC(C)N1CC[C@@H](N(C)C(=O)c2ccc(-n3ncc4ccccc43)cc2)C1 (as salt: hydrochloride)

A)
1: 160 °C (dec.); 2: 255 to 256 °C; 3: 250 to 252 °C; 4: 175 to 177 °C

// for each compound below, give its melting point
1. Cc1nc2ccccc2n1Cc1ccc(C(=O)N(C)C2CCN(C3CCC3)CC2)cc1 (as salt: hydrochloride)
2. COc1cc(-n2c(C)nc3ccccc32)ccc1C(=O)N(C)[C@@H]1CCN(C2CCC2)C1 (as salt: hydrochloride)
3. Cc1nc2ccccc2n1-c1ccc(C(=O)N(C)[C@@H]2CCN(C3CCC3)C2)cc1 (as salt: hydrochloride)
4. CN(C(=O)c1ccc(-n2ncc3ccccc32)cc1)[C@@H]1CCN(C2CCC2)C1 (as salt: hydrochloride)
5. Cc1cc(C(=O)N(C)C2CCN(C3CCCC3)CC2)ccc1-n1c(C)nc2ccccc21 (as salt: hydrochloride)
6. Cc1nc2ccccc2n1Cc1ccc(C(=O)N(C)C2CCN(C(C)C)CC2)c2ccccc12 (as salt: hydrochloride) [Example 144b]
7. CN(C(=O)c1ccc(-n2cccn2)cc1)C1CCN(C2CCC2)CC1 (as salt: hydrochloride)

A)
1: 280 °C (dec.); 2: 202 to 204 °C; 3: 175 to 176 °C; 4: 163 to 165 °C; 5: 240 °C (dec.); 6: 153 to 155 °C; 7: 272 to 273 °C

// for each compound below, give its melting point
1. CN(C(=O)c1ccc(-n2cccn2)cc1)C1CCN(C2CCCC2)CC1 (as salt: hydrochloride)
2. Cc1nc2ccccc2n1-c1ccc(C(=O)N(C)[C@@H]2CCN(C3CC4CCC3C4)C2)cc1 (some centres unmarked) (as salt: hydrochloride)

A)
1. 240 °C (dec.)
2. 205 to 207 °C
